Value source: ChEMBL document CHEMBL5291721

Values of AC50 reported for Muscarinic acetylcholine receptor M5 (Homo sapiens, UniProt P08912) appear below.

// known answers, use as guide
1) CCCCOc1ccc(C(=O)CCN2CCCCC2)cc1 | 15.8 µM
2) O=C(/C=C/c1cccc(S(=O)(=O)Nc2ccccc2)c1)NO | > 10 µM
3) CN(CCOc1ccc(CC2SC(=O)NC2=O)cc1)c1ccccn1 (configuration not stated) | > 10 µM

Consider now this further compound.
# input compound: C[N+]12CCC(CC1)C(OC(=O)C(O)(c1ccccc1)c1ccccc1)C2 (configuration not stated) ; wanted: its AC50
0.0068 µM

---

# target.system: Alpha-1A adrenergic receptor (Homo sapiens, UniProt P35348); note: assay procedure not described here
# Sequence (P35348 whole entry): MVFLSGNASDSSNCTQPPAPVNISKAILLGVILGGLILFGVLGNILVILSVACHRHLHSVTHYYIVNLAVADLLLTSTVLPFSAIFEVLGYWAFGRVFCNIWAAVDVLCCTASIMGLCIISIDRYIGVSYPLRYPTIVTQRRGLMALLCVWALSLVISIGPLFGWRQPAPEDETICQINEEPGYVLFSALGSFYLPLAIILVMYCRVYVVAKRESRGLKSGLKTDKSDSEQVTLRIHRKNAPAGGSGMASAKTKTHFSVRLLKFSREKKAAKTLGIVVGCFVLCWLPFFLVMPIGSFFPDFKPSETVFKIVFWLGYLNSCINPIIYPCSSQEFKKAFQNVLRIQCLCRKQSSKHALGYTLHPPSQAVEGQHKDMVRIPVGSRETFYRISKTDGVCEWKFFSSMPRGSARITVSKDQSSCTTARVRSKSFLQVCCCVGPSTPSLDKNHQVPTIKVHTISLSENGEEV
# Assay type: functional, cell-based
Examples of compounds with documented AC50 follow.

// known answers, use as guide
1. CC[C@H]1OC(=O)[C@H](C)[C@@H](O[C@H]2C[C@@](C)(OC)[C@@H](O)[C@H](C)O2)[C@H](C)[C@@H](O[C@@H]2O[C@H](C)C[C@H](N(C)C)[C@H]2O)[C@](C)(O)C[C@@H](C)[C@@H]2N[C@@H](COCCOC)O[C@H]([C@H]2C)[C@]1(C)O | > 30 µM
2. Cc1ccccc1C(=O)Nc1ccc(C(=O)N2CCCC(O)c3cc(Cl)ccc32)c(C)c1 (stereo not drawn) | > 30 µM
3. O=C(CCC/C=C\C[C@@H]1[C@@H](CC[C@@H](O)CCc2ccccc2)[C@H](O)C[C@@H]1O)OCCCCO[N+](=O)[O-] | > 30 µM
4. CCCCC1C(=O)N(c2ccccc2)N(c2ccc(O)cc2)C1=O (stereo not drawn) [OXYPHENBUTAZONE ANHYDROUS] | > 30 µM
5. CCCn1cnc2c1c(=O)n(CCCCC(C)=O)c(=O)n2C | > 30 µM

Consider now this further compound.
# input compound: COc1ccc(OC)c(C(O)C(C)N)c1 (stereo not drawn) ; wanted: its AC50
0.021 µM

---

# target.system: Type-1 angiotensin II receptor (Homo sapiens, UniProt P30556); note: assay procedure not described here
# Sequence (P30556 whole entry): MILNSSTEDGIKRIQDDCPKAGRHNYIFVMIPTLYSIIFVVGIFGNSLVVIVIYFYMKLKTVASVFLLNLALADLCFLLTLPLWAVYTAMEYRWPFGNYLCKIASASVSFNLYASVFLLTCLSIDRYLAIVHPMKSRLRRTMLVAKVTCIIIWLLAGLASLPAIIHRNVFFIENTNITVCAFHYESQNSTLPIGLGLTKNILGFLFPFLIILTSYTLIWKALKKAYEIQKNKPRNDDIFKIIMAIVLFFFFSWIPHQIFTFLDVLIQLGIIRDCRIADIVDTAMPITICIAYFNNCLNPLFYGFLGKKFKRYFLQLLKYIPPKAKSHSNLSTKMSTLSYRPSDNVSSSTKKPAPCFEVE
quantity.measured: AC50

1. CN1CCN=C(c2ccccc2)c2cc(Cl)ccc21 | > 30 µM
2. CNCCc1ccc(OC(=O)C(C)C)c(OC(=O)C(C)C)c1 | > 30 µM
3. CN1Cc2c(N)cccc2C(c2ccccc2)C1 (stereo not given) | > 30 µM
4. CC(C)NC[C@H](O)COc1ccc(CC(N)=O)cc1 | > 30 µM
5. COc1cc(C(=O)OCc2cccc(COC(=O)c3cc(OC)c(OC)c(OC)c3)n2)cc(OC)c1OC | > 30 µM

What measured AC50 is associated with C[C@@H]1C[C@H]2[C@@H]3C[C@H](F)C4=CC(=O)C=C[C@]4(C)[C@@]3(F)[C@@H](O)C[C@]2(C)[C@@]1(OC(=O)c1ccco1)C(=O)SCF [FLUTICASONE FUROATE] on Type-1 angiotensin II receptor (Homo sapiens, UniProt P30556)?
> 10 µM

What measured AC50 is associated with "CCCN1CCCC[C@H]1C(=O)Nc1c(C)cccc1C" on Type-1 angiotensin II receptor (Homo sapiens, UniProt P30556)?
> 30 µM

What measured AC50 is associated with "Oc1ccc(CCNCCCCCCNCCc2ccccc2)cc1O" on Type-1 angiotensin II receptor (Homo sapiens, UniProt P30556)?
> 30 µM

What measured AC50 is associated with "CN(C)CCCN1c2ccccc2CCc2ccccc21" on Type-1 angiotensin II receptor (Homo sapiens, UniProt P30556)?
> 30 µM

What measured AC50 is associated with "C[C@@H]1C[C@H]2[C@@H]3CCC4=CC(=O)C=C[C@]4(C)[C@@]3(F)[C@@H](O)C[C@]2(C)[C@@]1(O)C(=O)CO" on Type-1 angiotensin II receptor (Homo sapiens, UniProt P30556)?
> 30 µM

What measured AC50 is associated with CC(CN1c2ccccc2Sc2ccccc21)N(C)C (stereo not given) on Type-1 angiotensin II receptor (Homo sapiens, UniProt P30556)?
> 30 µM

What measured AC50 is associated with "CC=CC1=C(C(=O)O)N2C(=O)[C@@H](NC(=O)[C@H](N)c3ccc(O)cc3)[C@H]2SC1" on Type-1 angiotensin II receptor (Homo sapiens, UniProt P30556)?
> 30 µM

What measured AC50 is associated with "COc1cc(C)c(/C=C/C(C)=C/C=C/C(C)=C/C(=O)O)c(C)c1C" on Type-1 angiotensin II receptor (Homo sapiens, UniProt P30556)?
> 10 µM

What measured AC50 is associated with "CCCCOc1ccc(C(=O)CCN2CCCCC2)cc1" on Type-1 angiotensin II receptor (Homo sapiens, UniProt P30556)?
> 30 µM
